Source of measurements: patent US7638508B2

Biological target: Progesterone Receptor (Homo sapiens)
Construct: The human breast cancer cell line T47D has been reported to upregulate an endogenous alkaline phosphatase in response to progestins; endogenous in cells
Experiment: Assay for Progesterone Receptor Activity: alkaline phosphatase upregulation in T47D cells
Settings: 24 hours at 37° C.
pEC50: −log10 of the molar value.
MEASURE NAME: pEC50

C[C@@H]1C[C@H]2[C@@H]3C[C@H](F)C4=CC(=O)CC[C@]4(C)[C@@]3(F)[C@@H](O)C[C@]2(C)[C@@]1(OC(=O)C1C(C)(C)C1(C)C)C(=O)OCC#N [Example 18]; < 7.00
C[C@@H]1C[C@H]2[C@@H]3C[C@H](F)C4=CC(=O)C=C[C@]4(C)[C@@]3(F)[C@@H](O)C[C@]2(C)[C@@]1(OC(=O)C1CCCCC1)C(=O)OCC#N [Example 5]; < 7.00

// next entry
Q) Reported pEC50, compound C[C@@H]1C[C@H]2[C@@H]3C[C@H](F)C4=CC(=O)C=C[C@]4(C)[C@@]3(F)[C@@H](O)C[C@]2(C)[C@@]1(OC(=O)c1cccc(SC(F)F)c1)C(=O)SCC#N [Example 25] : ____
A) < 7.00
